# protocol: Microcapsule fragrance loading quantification via GC
# Assay type: physicochemical
# condition_description: share of the fragrance material in the encapsulated oil, Example 21A
Threshold-based label: Composition 1 (oil wt %) under 20 wt % gives Y, Composition 1 (oil wt %) not under 20 wt % gives N.

>>> print(df.to_string())
                                   compound  qualitative_label
0      CCC=C(C)C(O)CCCCC (centres unmarked)                  N
1                       CC(C)=CCC/C(C)=C/CO                  Y
2  C/C=C/C(=O)C1C(C)C=CCC1(C)C (centres unmarked)                  N
3                           OC/C=C/c1ccccc1                  Y
4                            CCCCCCCCCCCC#N                  N

====

The entries below are paired with their reported Composition 2 (oil wt %).
# protocol: Microcapsule fragrance loading quantification via GC
# Type: physicochemical
# condition_description: share of the fragrance material in the encapsulated oil, Example 21B
observable: Composition 2 (oil wt %)

                                   compound  endpoint_result
0      c1ccc(Oc2ccccc2)cc1 [Diphenyl oxide]             20.1
1        C=C(C)[C@H]1CC=C(C)CC1 [Dipentene]             21.5
2  O=C(OCc1ccccc1)c1ccccc1O [Benzyl salicylate]             22.5
3  C/C=C/C(=O)C1C(C)C=CCC1(C)C (stereo not shown) [Delta damascone]             18.1

====

# protocol: Microcapsule fragrance loading quantification via GC
# Assay type: physicochemical
# condition_description: level of the fragrance material in microcapsules of Example 21B
observable: Composition 2 (encapsulate wt %)

                                   molecule                        observable  unit_string  endpoint_result
0      c1ccc(Oc2ccccc2)cc1 [Diphenyl oxide]  Composition 2 (encapsulate wt %)         wt %             0.59
1  C/C=C/C(=O)C1C(C)C=CCC1(C)C (stereo not shown) [Delta damascone]  Composition 2 (encapsulate wt %)         wt %             0.53
2  O=C(OCc1ccccc1)c1ccccc1O [Benzyl salicylate]  Composition 2 (encapsulate wt %)         wt %             0.66
3        C=C(C)[C@H]1CC=C(C)CC1 [Dipentene]  Composition 2 (encapsulate wt %)         wt %             0.63

====

# protocol: Microcapsule fragrance loading quantification via GC
# Assay type: physicochemical
# condition_description: level of the fragrance material in microcapsules of Example 21A
Threshold rule: Composition 1 (encapsulate wt %) greater than or equal to 0.1 wt % is true (1); below that, false (0).

>>> df
                                   compound  qualitative_label
0      CCC=C(C)C(O)CCCCC (centres unmarked)           true (1)
1                       CC(C)=CCC/C(C)=C/CO           true (1)
2                           OC/C=C/c1ccccc1          false (0)
3                            CCCCCCCCCCCC#N           true (1)
4  C/C=C/C(=O)C1C(C)C=CCC1(C)C (centres unmarked)           true (1)
